test: DUSP6 inhibitors restoring Erk phosphorylation by chemical complementation, primary imaging in DUSP6-transfected HeLa (AID 609); conditions: HeLa MKP-3 transfected, phospho-Erk imaging KS statistic; measured here: cell density z-score; at 10 µM; cells stimulated with TPA for 15 min
Class Criterion met: z-score at least -0.1. Class Criterion not met: z-score below -0.1.

MOLECULE: Cc1c(/C(O)=C2\C(=O)C(=O)N(CCN(C)C)C2c2cccs2)cnn1-c1ccccc1 (configuration not stated)
DISCRETE_LABEL: Criterion met

MOLECULE: Cc1ccc(SCc2[nH]nc3c2C(c2ccc(C)o2)C(C#N)=C(N)O3)cc1 (configuration not stated)
DISCRETE_LABEL: Criterion not met

MOLECULE: COc1ccc(C2/C(=C(/O)c3ccccc3)C(=O)C(=O)N2c2ncccn2)cc1OC (configuration not stated)
DISCRETE_LABEL: Criterion not met

MOLECULE: CCN(CC)CCOC(=O)C1(C2CCCCC2)CCCCC1
DISCRETE_LABEL: Criterion not met

MOLECULE: CC(Sc1nc(N2CCCCC2)c2c(c1C#N)CCCC2)C(=O)O (configuration not stated)
DISCRETE_LABEL: Criterion not met

MOLECULE: N#CC1=C(C=Nc2ccccc2O)CCC1
DISCRETE_LABEL: Criterion not met

MOLECULE: CCOC(=O)c1[nH]c2ccc(Br)cc2c1NC(=O)CCN1CCC(C(=O)OCC)CC1
DISCRETE_LABEL: Criterion met

MOLECULE: CS(=O)(=O)CCC(C(=O)n1nnc2ccccc21)N1C(=O)c2ccccc2C1=O (configuration not stated)
DISCRETE_LABEL: Criterion met

MOLECULE: Cn1c(N2CCOCC2)nc2c1c(=O)n(Cc1ccc(Cl)c(Cl)c1)c(=O)n2C
DISCRETE_LABEL: Criterion not met

MOLECULE: O=C1[C@@H]2[C@H](C(=O)N1n1cnnc1)[C@H]1C=C[C@@H]2C1
DISCRETE_LABEL: Criterion not met

MOLECULE: CC1CCc2cc(F)cc3c(O)c(C(=O)NCc4ccco4)c(=O)n1c23 (configuration not stated)
DISCRETE_LABEL: Criterion not met

MOLECULE: CN1CCc2c(sc3c2C(=O)NC(c2ccco2)N3)C1 (configuration not stated)
DISCRETE_LABEL: Criterion met

MOLECULE: Cc1nc2c(c(=O)n1CC1CCCO1)c1nc3ccccc3nc1n2Cc1ccc2c(c1)OCO2 (configuration not stated)
DISCRETE_LABEL: Criterion met

MOLECULE: O=C(O)CC(NCc1ccco1)C(=O)OCC1CCCO1 (configuration not stated)
DISCRETE_LABEL: Criterion met

MOLECULE: Nc1nc(Cl)nc2c1ncn2[C@@H]1O[C@H](CO)[C@@H](O)[C@H]1O
DISCRETE_LABEL: Criterion met

MOLECULE: O=C(O)Cc1cc(I)c(Oc2ccc(O)c(I)c2)c(I)c1
DISCRETE_LABEL: Criterion met

MOLECULE: CCCOc1ccc(CSC(CC(=O)O)C(=O)O)cc1 (configuration not stated)
DISCRETE_LABEL: Criterion met

MOLECULE: CCCCn1c2nc3ccccc3nc2c2c(=O)n(CC(C)C)cnc21
DISCRETE_LABEL: Criterion met

MOLECULE: COC(=O)CSc1nc2sc3c(c2c(=O)n1C1CCCCC1)CCN(C)C3
DISCRETE_LABEL: Criterion not met

MOLECULE: CC(C)c1nc(N2CCOCC2)c(C#N)c2c1CCC2
DISCRETE_LABEL: Criterion met

MOLECULE: CC(Cc1ccc(O)c(O)c1)C(C)Cc1ccc(O)c(O)c1 (configuration not stated)
DISCRETE_LABEL: Criterion met

MOLECULE: Cn1c(N2CCOCC2)nc2c1c(=O)n(Cc1ccc(Cl)cc1)c(=O)n2C
DISCRETE_LABEL: Criterion met
